Measured IC50, listed per entry for reference.
target: IL-17A(FLAG-tagged): IL-17RA(His-tagged) (Homo sapiens, UniProt Q16552, K93Q); assay: IL-17A(FLAG-tagged): IL-17RA(His-tagged) binding disruption Eu-HTRF assay; settings: class of the average IC50 where tested more than once
Sequence (Q16552 with tags, fused parts or gaps K93Q): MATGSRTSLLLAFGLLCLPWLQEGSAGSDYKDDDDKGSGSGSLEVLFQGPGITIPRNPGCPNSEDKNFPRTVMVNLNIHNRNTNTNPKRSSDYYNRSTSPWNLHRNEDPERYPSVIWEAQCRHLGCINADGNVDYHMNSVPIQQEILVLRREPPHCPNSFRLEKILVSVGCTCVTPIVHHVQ

Some entries whose results are on file:
molecule	measurement.type	value.observed
O=C(N[C@H](c1cn2ncc([C@H](O)[C@H]3C[C@@H](C(F)(F)F)NC3=O)cc2n1)C1CCC(F)(F)CC1)c1nonc1C1CC1 (relative stereo)	IC50	> 4000 nM
O=C(N[C@H](c1cn2ncc(CC3C[C@@H](C4CC4)NC3=O)cc2n1)C1CCC(F)(F)CC1)c1nonc1C1CC1 (single isomer, unassigned) [Example 43]	IC50	400 to 4000 nM
O=C(N[C@H](c1cn2ncc([C@@H](O)[C@H]3C[C@@H](C(F)(F)F)NC3=O)cc2n1)C1CCC(F)(F)CC1)c1nonc1C1CC1 [Example 74]	IC50	< 400 nM
C[C@@H](c1cnn2cc([C@@H](NC(=O)c3nonc3C3CC3)C3CCC(F)(F)CC3)nc2c1)[C@@H]1C[C@@H](C(F)(F)F)NC1=O (single isomer, unassigned)	IC50	400 to 4000 nM
COc1nonc1C(=O)N[C@@H](CCC(C)(C)C(F)(F)F)c1cn2ncc(CC3C[C@@H](C(F)(F)F)NC3=O)cc2n1 (single isomer, unassigned) [Example 6]	IC50	< 400 nM

Identify measured IC50 associated with CC(C)n1nccc1C(=O)N[C@H](c1cn2ncc(C[C@H]3C[C@@H](C(F)(F)F)NC3=O)cc2n1)C1CCC(F)(F)CC1
< 400 nM

====

tested on: IL-17A-induced G-CSF production in human normal keratinocyte (NHK); assay: NHK assay: IL-17A-induced G-CSF production in normal human keratinocytes; format: cell-based; settings: Homo sapiens, Keratinocyte, 24 h, IL-17A 5 ng/mL, class of the average IC50 where tested more than once
measurement.type: IC50

Reference set (2 entries):
compound	IC50
CC[C@@H](c1cnn2cc([C@@H](NC(=O)c3nonc3C3CC3)C3CCC(F)(F)CC3)nc2c1)[C@@H]1C[C@@H](C(F)(F)F)NC1=O (single isomer, unassigned) [Example 19]	< 400 nM
Cc1nonc1C(=O)N[C@@H](CCC(C)(C)C(F)(F)F)c1cn2ncc(C[C@H]3C[C@@H](C(F)(F)F)NC3=O)cc2n1 (single isomer, unassigned)	< 400 nM

Given O=C(N[C@H](c1cn2ncc(CC3CCNC3=O)cc2n1)C1CCC(F)(F)CC1)c1nonc1C1CC1 (single isomer, unassigned) , respond with its IC50.
> 4000 nM

Provide only the value of recorded IC50 for O=C(N[C@H](c1cn2ncc(C[C@@]3(O)C[C@@H](C(F)(F)F)NC3=O)cc2n1)C1CCC(F)(F)CC1)c1nonc1C1CC1
< 400 nM

Note IC50 for the compound shown: C[C@H]1C[C@H](Cc2cnn3cc([C@@H](NC(=O)c4nonc4C4CC4)C4CCC(F)(F)CC4)nc3c2)C(=O)N1 (relative stereo)
< 400 nM

====

tested on: IL-17A-induced G-CSF production in human normal keratinocyte (NHK); assay: NHK assay: IL-17A-induced G-CSF production in normal human keratinocytes; format: cell-based; conditions: Homo sapiens, Keratinocyte, 24 h, IL-17A 5 ng/mL, class of the average IC50 where tested more than once
Recorded IC50 values for a group of compounds are listed next.

Below, each entry is followed by its recorded IC50 result.
compound	target.of.assay	IC50
C[C@@H]1C[C@H](Cc2cnn3cc([C@@H](NC(=O)c4nonc4C4CC4)C4CCC(F)(F)CC4)nc3c2)C(=O)N1 (relative stereo) [Example 85]	IL-17A-induced G-CSF production in human normal keratinocyte (NHK)	> 4 µM
O=C(N[C@H](c1cn2ncc(C[C@H]3C[C@@H](C(F)(F)F)NC3=O)cc2n1)C1CCC(F)(F)CC1)c1nonc1C1CC1 [Example 59]	IL-17A-induced G-CSF production in human normal keratinocyte (NHK)	< 0.4 µM

Moving on to another compound below.
# return IC50 for O=C(N[C@H](c1cn2ncc(C[C@@]34CC[C@H](C3)NC4=O)cc2n1)C1CCC(F)(F)CC1)c1nonc1C1CC1 (single isomer, unassigned) [Example 17] , test system: IL-17A-induced G-CSF production in human normal keratinocyte (NHK)
> 4 µM
